Every entry's value here was drawn from paper doi:10.1101/2021.10.07.463234v2.

# target.or.system: SARS-CoV-2 Mac1 (Severe acute respiratory syndrome coronavirus 2, UniProt P0DTD1)
# assay.text: biochemical
# particulars: 100 µM; inhibitor
Where a name gives a salt, the structure may show the parent alone.
Would you kindly list %inhibition for each of these molecules?
Numbers only, in %.

COc1cc2nc(N3CCN(C(=O)C4CCCO4)CC3)nc(N)c2cc1OC (stereo not shown) [Terazosin HCl Dihydrate]    6.293

# return %inhibition for each item in the list
1. CCOc1ccc(Cc2cc([C@@H]3O[C@H](CO)[C@@H](O)[C@H](O)[C@H]3O)ccc2Cl)cc1 [Dapagliflozin propanediol monohydrate]
2. CN(C)C/C=C/C(=O)Nc1cc2c(Nc3ccc(F)c(Cl)c3)ncnc2cc1O[C@H]1CCOC1 [Afatinib (BIBW2992)]
3. CCC[C@@H]1C[C@@H](C(=O)N[C@@H]([C@H]2O[C@H](SC)[C@H](O)[C@@H](O)[C@H]2O)[C@@H](C)O)N(C)C1 [Lincomycin HCl]

1: 0; 2: 0.3349; 3: 0

---

# target.or.system: SARS-CoV-2 Mac1 (Severe acute respiratory syndrome coronavirus 2)
# assay.text: biochemical
# particulars: read-out: %inhibition
Counter-ions that a name gives are not always drawn.
Would you kindly list inhibition at 100 µM for each of these compounds?
Numbers only, in %.

CO[C@H]1O[C@H](COS(=O)(=O)O)[C@@H](O[C@@H]2O[C@@H](C(=O)O)[C@@H](O[C@H]3O[C@H](COS(=O)(=O)O)[C@@H](O[C@@H]4O[C@H](C(=O)O)[C@@H](O[C@H]5O[C@H](COS(=O)(=O)O)[C@@H](O)[C@H](O)[C@H]5NS(=O)(=O)O)[C@H](O)[C@H]4O)[C@H](OS(=O)(=O)O)[C@H]3NS(=O)(=O)O)[C@H](O)[C@H]2OS(=O)(=O)O)[C@H](O)[C@H]1NS(=O)(=O)O [Fondaparinux Sodium]    0
NCCCC[C@H](N[C@@H](CCc1ccccc1)C(=O)O)C(=O)N1CCC[C@H]1C(=O)O    3.22
CO/N=C(\C(=O)N[C@@H]1C(=O)N2C(C(=O)[O-])=C(C[n+]3cccc4c3CCC4)CS[C@H]12)c1csc(N)n1 [Cefpirome sulfate]    0
Cc1ccccc1-n1c(CF)nc2ccc(N)cc2c1=O    0

# return inhibition at 100 µM for each item in the list
1. CCc1cccc2c3c([nH]c12)C(CC)(CC(=O)O)OCC3 (centres unmarked)
2. CN(C)CCCN1c2ccccc2Sc2ccc(Cl)cc21 [Chlorpromazine HCl]
3. Cc1ccc(C(=O)c2cc(O)c(O)c([N+](=O)[O-])c2)cc1
4. CC(C(=O)O)c1cccc(C(=O)c2ccccc2)c1 (centres unmarked)
5. COc1cc(N)c(Cl)cc1C(=O)N[C@H]1CCN(CCCOc2ccc(F)cc2)C[C@H]1OC [Cisapride hydrate]
6. CN1CCC(=C2c3ccccc3CCn3c(C=O)cnc32)CC1
7. COc1cc2c(cc1OC)[C@@]13CCN4CC5=CCO[C@H]6CC(=O)N2[C@H]1[C@H]6[C@H]5C[C@H]43 [Brucine sulfate salt hydrate]

0
0
0
0
0
0
0

# return inhibition at 100 µM for each item in the list
1. Cn1cc(C2=C(c3cn(C4CCN(Cc5ccccn5)CC4)c4ccccc34)C(=O)NC2=O)c2ccccc21
2. COC(=O)[C@]12CCC(C)(C)C[C@H]1[C@H]1C(=O)C=C3[C@@]4(C)C=C(C#N)C(=O)C(C)(C)[C@@H]4CC[C@@]3(C)[C@]1(C)CC2

1: 34.6; 2: 16.4

# return inhibition at 100 µM for each item in the list
1. O[C@H]1[C@H](O)[C@@H](O)[C@H](O)[C@@H](O)[C@H]1O
2. O=C1c2c(O)cccc2Cc2cccc(O)c21
3. CC1(C)S[C@@H]2[C@H](NC(=O)[C@H](NC(=O)N3CCN(S(C)(=O)=O)C3=O)c3ccccc3)C(=O)N2[C@H]1C(=O)O [Mezlocillin Sodium]
4. CC(=O)OC(C)C[N+](C)(C)C (centres unmarked) [Methacholine chloride]

1. 0
2. 18.7
3. 6.75
4. 8.52

# return inhibition at 100 µM for each item in the list
1. Nc1nc(Cl)nc2c1ncn2[C@@H]1O[C@H](CO)[C@@H](O)[C@@H]1F
2. CN(CCOc1ccc(NS(C)(=O)=O)cc1)CCc1ccc(NS(C)(=O)=O)cc1 [Dofetilide]
3. Cc1cn(-c2cc(NC(=O)c3ccc(C)c(Nc4nccc(-c5cnccn5)n4)c3)cc(C(F)(F)F)c2)cn1
4. Cc1ccnc2c1NC(=O)c1cccnc1N2C1CC1
5. CN1C(C(=O)Nc2ccccn2)=C(O)c2sc(Cl)cc2S1(=O)=O
6. CCOC(=O)Nc1ccc(NCc2ccc(F)cc2)nc1N [Flupirtine maleate]

1: 44.7; 2: 8.13; 3: 1.77; 4: 20.6; 5: 18.3; 6: 4.99

# return inhibition at 100 µM for each item in the list
1. CC(C)(C)NC(=O)[C@H]1CC[C@H]2[C@@H]3CC[C@H]4NC(=O)C=C[C@]4(C)[C@H]3CC[C@]12C [Finasteride]
2. Cc1cc(S(=O)(=O)O)c2c(C)ccc(C(C)C)cc1-2 [Sodium gualenate]
3. O=c1c(-n2ccnn2)c[nH]n1-c1cc(N2CCOCC2)ncn1
4. CNCC[C@@H](Oc1ccccc1C)c1ccccc1 [Atomoxetine HCl]
5. Cc1ncc([N+](=O)[O-])n1CC(C)O (centres unmarked)
6. Cc1cc(C(C)(C)C)cc(C)c1CC1=NCCN1 [Xylometazoline HCl]

0
12.6
19.3
0
34.4
9.99

# return inhibition at 100 µM for each item in the list
1. CC(=O)OCC(COC(C)=O)OC(C)=O
2. Nc1ccccc1NC(=O)c1ccc(CNc2nccc(-c3cccnc3)n2)cc1
3. OC[C@@H](O)[C@@H](O)[C@H](O)[C@@H](O)CO

3.58
7.18
0
